Test: Tanguay_ZF_120hpf_EYE_legacy: (Legacy) Oregon State University Tanguay Lab 120 Hour Post-fertilization zebrafish Assay for Eye Malformation (AID 2283636);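 also: binary presence or absence of eye malformation scored by brightfield in 120 hpf larvae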
Records with an inconclusive call do not appear. Active and inactive are the calls of the source. The calls were made as follows: active = hit-call score of the fitted dose curve at least 0.9, where 1 is the maximum; inconclusive = response in the unintended direction; inactive = score below 0.9.
Outcome codes: true for active, false for inactive

COMPOUND | ASSIGNED_CLASS
CCCCNC(=O)n1c(NC(=O)OC)nc2ccccc21 | true
CNC(=O)ON=CC(C)(C)SC | false
O=C(O)COc1nc(Cl)c(Cl)cc1Cl | false
Oc1ccccc1-c1ccccc1 | false
CCON=C(CC)C1=C(O)CC(c2c(C)cc(C)cc2C)CC1=O (stereo unspecified) | false
C=CC1(C)OC(=O)N(c2cc(Cl)cc(Cl)c2)C1=O (stereo unspecified) | false

###

Read-out: organic anion transporter (SLCO1B1), SLCO1B1 (gene 10599)
Assay: CLD_SLCO1B1_48hr: CellzDirect (CLD) Gene Expression Assay for organic anion transporter (SLCO1B1) at 48 hours (AID 2283707)
Records with an inconclusive call do not appear. Calls of active or inactive are those of the source. The calls were made as follows: active = hit-call score of the fitted dose curve at least 0.9, where 1 is the maximum; inconclusive = response in the unintended direction; inactive = score below 0.9.

CHEMICAL_STRUCTURE | outcome
COC(=O)c1ccccc1C(=O)OC | inactive
CCCCOC(=O)c1ccccc1C(=O)OCCCC | inactive
CCNc1nc(Cl)nc(NC(C)C)n1 | inactive
O=C(O)c1nc(Cl)ccc1Cl | inactive
CCNc1nc(Cl)nc(NCC)n1 | inactive

###

Read-out: Urokinase-type plasminogen activator receptor (uPAR), PLAUR (gene 5329)
Test: BSK_BE3C_uPAR: BioMAP Diversity Plus: BE3C Assay for Urokinase-type plasminogen activator receptor (uPAR) Biomarker Activity (AID 2283039);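 as to Outcome: uPAR protein level measured by ELISA on the cells; cells exposed to compound for one day before measurement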
Settings: primary human bronchial epithelial cells; actives raise or lower the signal
Active and inactive are the calls of the source. How the source made its calls: active means hit-call score of the fitted dose curve at least 0.9, where 1 is the maximum; inactive means score below 0.9.
Outcome codes: Yes = active, No = inactive

COMPOUND | ASSIGNED_CLASS
CC1=C(C(=O)Nc2ccccc2)SCCO1 | No
CC(C)C1(C)N=C(c2nc3ccccc3cc2C(=O)O)NC1=O (stereo unspecified) | No
COC(=O)C(C)Oc1ccc(Oc2ccc(Cl)cc2Cl)cc1 (stereo unspecified) | No
CCCCOC(=O)c1ccccc1C(=O)OCCCC | No
CCOC(=O)C(Cl)Cc1cc(-n2nc(C)n(C(F)F)c2=O)c(F)cc1Cl (stereo unspecified) | No
CS/C(C)=N/OC(=O)N(C)SN(C)C(=O)O/N=C(\C)SC | No
O=C(Nc1ccccc1)Nc1ccnc(Cl)c1 | Yes
COP(N)(=O)SC (stereo unspecified) | No
CCNc1nc(Cl)nc(NCC)n1 | No
N#CC(CCc1ccc(Cl)cc1)(Cn1cncn1)c1ccccc1 (stereo unspecified) | No
CCOC(=O)CC(SP(=S)(OC)OC)C(=O)OCC (stereo unspecified) | No
COc1cnc(OC)n2nc(NS(=O)(=O)c3c(OCC(F)F)cccc3C(F)(F)F)nc12 | No
COc1nc(C)nc(NC(=O)NS(=O)(=O)c2ccccc2CCC(F)(F)F)n1 | No
Fc1ccc(Oc2ccnc3cc(Cl)cc(Cl)c23)cc1 | Yes
CCOP(=S)(OCC)SCn1c(=O)oc2cc(Cl)ccc21 | Yes
CNC(=O)ON=CC(C)(C)SC | No
CC(Oc1ccc(Cl)cc1Cl)C(=O)O (stereo unspecified) | No
COC(=O)c1ccccc1C(=O)OC | No
C=CCC1=C(C)[C@@H](OC(=O)[C@@H]2[C@@H](C=C(C)C)C2(C)C)CC1=O | No
C#CCOS(=O)OC1CCCCC1Oc1ccc(C(C)(C)C)cc1 (stereo unspecified) | Yes
COc1ccc(C(c2ccc(OC)cc2)C(Cl)(Cl)Cl)cc1 | No
CCCCNC(=O)n1c(NC(=O)OC)nc2ccccc21 | No
COc1nc(NC(C)C)nc(NC(C)C)n1 | Yes
CCNc1nc(Cl)nc(NC(C)C)n1 | No
Cc1ccc(-c2c(Cl)nc(C#N)n2S(=O)(=O)N(C)C)cc1 | No
N#Cc1cc(Br)c(O)c(Br)c1 | No
